Readings of normalized growth for the listed molecules
- ASSAY_EXPLANATION: chemical genetic growth profiling, strain panel (AID 1159580);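 note: tested at 20 µM; growth read once vehicle control cultures reached saturation at 30 °C; 1 = growth at the plate median or of vehicle wells; lower values mean less growth of the strain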
- CONDITION: S. cerevisiae deletion strains, growth OD, locus YDL214C, strain PRR2, active compounds read low
Screen size: about 5,500 compounds; about 2,000 (36%) were called active. Roughly 18% stayed inconclusive and do not appear here. This is one part of the list.
Respond using a number only.

# count of solved cases: 2
>>> result_number("N#CC(C#N)=Cc1c(-c2ccccc2Cl)[nH]c2ccccc12")
0.919
>>> result_number("Cc1ccccc1/C=C/c1c[nH]c2ccccc12")
0.902

API: the following record is the query input.
Ask: So what's the measured normalized growth for this one? `C[C@@H](Nc1ncnc2sc3c(c12)CCCC3)c1ccccc1`
Reply: 0.904

###

- ASSAY_EXPLANATION: chemical genetic growth profiling, strain panel (AID 1159580);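 note: tested at 20 µM; growth read once vehicle control cultures reached saturation at 30 °C; 1 = growth at the plate median or of vehicle wells; lower values mean less growth of the strain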
- CONDITION: S. cerevisiae deletion strains, growth OD, locus YBR023C, strain chs3, active compounds read low
In all, about 5,500 compounds went through this assay and about 2,000 (36%) were called active. About 18% were inconclusive and are not listed. The list shows a part of the results.
METRIC_NAME: normalized growth
# output: bare number, no unit

>>> result_number("CN(C)C(=O)Oc1ccc[n+](C)c1")
1
>>> result_number("CCCn1c(=O)c2[nH]c(C3CCCC3)nc2n(CCC)c1=O")
0.986
>>> result_number("COC(=O)[C@H](c1ccccc1Cl)N1CCc2sccc2C1")
0.981

Ask: Looking for the measured normalized growth of `COP(=S)(OC)Oc1ccc([N+](=O)[O-])cc1` , can you help?
Reply: 0.994

Ask: What value of measured normalized growth is listed for CN(C)CCC(c1ccccc1)c1ccccn1 (configuration not stated) ?
Reply: 1.01

Ask: Could you share which normalized growth value was measured for `COP(=S)(OC)Oc1ccc(Sc2ccc(OP(=S)(OC)OC)cc2)cc1` ?
Reply: 1.01

Ask: Quick one: normalized growth for COC(=O)[C@@H]1OC(=O)C2OC23[C@@]1(C)CCC1[C@]2(C)C(C[C@@H](O)[C@]13C)C(C)(C)[C@H](OC(C)=O)C[C@@H]2OC(C)=O (some centres not stated) ?
Reply: 0.997

Ask: Requested field: normalized growth. Item: `C=C1C(=O)[C@]23[C@H](O)[C@H]1CC[C@H]2[C@@]12CO[C@]3(O)[C@H](O)[C@@H]1C(C)(C)CC[C@@H]2O`
Reply: 0.991

Ask: Requested read-out: normalized growth. Entry: `CC(O)(P(=O)(O)O)P(=O)(O)O`
Reply: 0.99

Ask: Record request: normalized growth value, item `NC(N)=NCCCCN=C(N)N`
Reply: 1.01

Ask: Which normalized growth is reported for this compound? CC(=O)OCC(=O)[C@@]1(O)CCC2C3CCC4=CC(=O)C=CC4(C)C3[C@@H](O)C[C@@]21C (some centres not stated)
Reply: 0.994

Ask: Give its normalized growth value. Item: CC1C/C=C/C=C/C=C/C=C/C(O[C@@H]2O[C@H](C)[C@@H](O)[C@H](N)[C@@H]2O)CC2OC(O)(CC(O)CC3OC3/C=C/C(=O)O1)CC(O)C2C(=O)O (some centres not stated)
Reply: 0.992

###

- ASSAY_EXPLANATION: chemical genetic growth profiling, strain panel (AID 1159580);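 note: tested at 20 µM; growth read once vehicle control cultures reached saturation at 30 °C; 1 = growth at the plate median or of vehicle wells; lower values mean less growth of the strain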
- CONDITION: S. cerevisiae deletion strains, growth OD, locus YER111C, strain swi4, active compounds read low
Out of some 5,500 compounds screened, about 2,000 (36%) were called active. Roughly 18% stayed inconclusive and do not appear here. The list shows a part of the results.
Returns: string. Value is 1 if measured normalized growth is below 1, and 0 if it is greater than or equal to it.

These recorded examples may help you get a feel for the data.
>>> cat("COc1cc(C)c2c(=O)cc(-c3ccccc3)oc2c1")
1
>>> cat("CN(C)CCC(c1ccccc1)c1ccccn1 (stereo not drawn)")
0

Ask: Criterion: normalized growth strictly below 1. Is it met by COC1C=CC23c4cc5c(cc4CN(CC2O)[C@@H]3C1)OCO5 (stereo partly drawn) ?
Reply: 1

Ask: Say whether its normalized growth is strictly beneath 1. Entry: COc1ccc2c(c1)OCC(Cc1ccc(OC)c(O)c1)C2=O (stereo not drawn)
Reply: 1

Ask: API: query returns whether the compound falls strictly under 1 in normalized growth. Query: `C[C@H]1C[C@@H](O)[C@]2(O)[C@@]13CC(=O)OC[C@@]2(C)[C@](C)(O)C(=O)C3`
Reply: 0
